Test system: Escherichia coli TOP10
Test: shrunken log2 fold change of peptide-encoding DNA abundance (4.5 h post-induction vs induction); higher = less antimicrobial activity (less host growth inhibition)
Details: time post-induction: 4.5 h; library: site-saturation at positions 5, 18, 19, 20
Mark Criterion met for reported shrunken log2 fold change of -0.003 or greater; mark Criterion not met for anything smaller.

The following sequences have reported results that may help.
RRIRMRPPRLPRPRPRPEWTPRP
Criterion met
RRIRDRPPRLPRPRPRPWPGPRP
Criterion met
RRIRHRPPRLPRPRPRPFGSPRP
Criterion not met
RRIRDRPPRLPRPRPRPVTPPRP
Criterion met
RRIRWRPPRLPRPRPRPCMSPRP
Criterion met
RRIRMRPPRLPRPRPRPNGSPRP
Criterion met
RRIRWRPPRLPRPRPRPNPNPRP
Criterion met
RRIRKRPPRLPRPRPRPNLPPRP
Criterion met

// query Has `RRIRCRPPRLPRPRPRPGDYPRP` a recorded shrunken log2 fold change greater than or equal to -0.003?
// result Criterion not met

// query Has `RRIRGRPPRLPRPRPRPNPKPRP` a recorded shrunken log2 fold change greater than or equal to -0.003?
// result Criterion met

// query Has `RRIRCRPPRLPRPRPRPILMPRP` a recorded shrunken log2 fold change greater than or equal to -0.003?
// result Criterion not met

// query Has `RRIRARPPRLPRPRPRPYPDPRP` a recorded shrunken log2 fold change greater than or equal to -0.003?
// result Criterion not met

// query Has `RRIRSRPPRLPRPRPRPEDQPRP` a recorded shrunken log2 fold change greater than or equal to -0.003?
// result Criterion met

// query Has `RRIRQRPPRLPRPRPRPPRWPRP` a recorded shrunken log2 fold change greater than or equal to -0.003?
// result Criterion met

// query Has `RRIRGRPPRLPRPRPRPVSQPRP` a recorded shrunken log2 fold change greater than or equal to -0.003?
// result Criterion met

---

Tested on: Escherichia coli TOP10;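 note: peptides expressed intracellularly from a pBAD plasmid library in pooled LB shake-flask culture, induced with 0.3% L-arabinose, DNA abundance read by NGS, three biological replicates, DESeq2 with apeglm shrinkage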
Test: shrunken log2 fold change of peptide-encoding DNA abundance (4.5 h post-induction vs induction); higher = less antimicrobial activity (less host growth inhibition)
Conditions: time post-induction: 4.5 h; library: site-saturation at positions 5, 18, 19, 20
measuredEndpoint: shrunken log2 fold change
Give the value as a plain number.

Worked examples follow.
RRIRKRPPRLPRPRPRPFYTPRP
-0.109
RRIRWRPPRLPRPRPRPEMFPRP
0.274

// query Record request: shrunken log2 fold change value, item `RRIRLRPPRLPRPRPRPKPIPRP`
// result 0.111

// query Record request: shrunken log2 fold change value, item `RRIRPRPPRLPRPRPRPQFVPRP`
// result -0.528

// query Record request: shrunken log2 fold change value, item `RRIRHRPPRLPRPRPRPLIFPRP`
// result -0.38

// query Record request: shrunken log2 fold change value, item `RRIRCRPPRLPRPRPRPPCNPRP`
// result -0.355

// query Record request: shrunken log2 fold change value, item `RRIRARPPRLPRPRPRPNVNPRP`
// result -0.0484

// query Record request: shrunken log2 fold change value, item `RRIRMRPPRLPRPRPRPRDVPRP`
// result 0.372

// query Record request: shrunken log2 fold change value, item `RRIRARPPRLPRPRPRPYWVPRP`
// result -0.57

// query Record request: shrunken log2 fold change value, item `RRIRVRPPRLPRPRPRPPNFPRP`
// result 0.0102

// query Record request: shrunken log2 fold change value, item `RRIRCRPPRLPRPRPRPGRRPRP`
// result 1.11

// query Record request: shrunken log2 fold change value, item `RRIRTRPPRLPRPRPRPMNWPRP`
// result -0.234

// query Record request: shrunken log2 fold change value, item `RRIRARPPRLPRPRPRPHDHPRP`
// result -0.0299

// query Record request: shrunken log2 fold change value, item `RRIRRRPPRLPRPRPRPIGGPRP`
// result 0.205

// query Record request: shrunken log2 fold change value, item `RRIRHRPPRLPRPRPRPNAAPRP`
// result 0.299

// query Record request: shrunken log2 fold change value, item `RRIRQRPPRLPRPRPRPVYPPRP`
// result -0.0407

// query Record request: shrunken log2 fold change value, item `RRIRCRPPRLPRPRPRPLLGPRP`
// result 0.201

// query Record request: shrunken log2 fold change value, item `RRIRPRPPRLPRPRPRPHLLPRP`
// result -0.0988

// query Record request: shrunken log2 fold change value, item `RRIRLRPPRLPRPRPRPVEDPRP`
// result 0.0985

The values you see were collected from the supplement of paper PMC9112550.
